Target: Alkaline phosphatase, tissue-nonspecific isozyme (Homo sapiens) (UniProt P05186)
Sequence (P05186 whole entry, looked up): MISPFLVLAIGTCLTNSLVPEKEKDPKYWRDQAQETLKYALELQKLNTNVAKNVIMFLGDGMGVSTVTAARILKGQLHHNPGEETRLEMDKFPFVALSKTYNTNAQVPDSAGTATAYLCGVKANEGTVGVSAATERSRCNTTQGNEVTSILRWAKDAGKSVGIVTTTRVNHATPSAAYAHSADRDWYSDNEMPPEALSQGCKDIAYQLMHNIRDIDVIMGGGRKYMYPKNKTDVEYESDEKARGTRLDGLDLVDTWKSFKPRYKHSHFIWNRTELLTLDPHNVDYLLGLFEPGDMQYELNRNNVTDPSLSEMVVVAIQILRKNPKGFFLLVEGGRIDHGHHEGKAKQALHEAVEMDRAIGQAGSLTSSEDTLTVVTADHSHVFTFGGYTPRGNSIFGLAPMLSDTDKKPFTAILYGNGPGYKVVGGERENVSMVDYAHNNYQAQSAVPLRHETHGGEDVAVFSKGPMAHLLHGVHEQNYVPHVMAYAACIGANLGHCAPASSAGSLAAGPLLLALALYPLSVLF
Experiment: human TNAP enzyme activators, primary screen, biochemical, luminescent, no phosphate acceptor, uHTS (AID 1001)
Conditions: purified TNAP, luminescent activation assay, at 20 µM, stronger effect = higher value
Among all 200,000 compounds or so, about 50 (0.03%) were called active. The list comes from a sample in which actives are over-represented; it also holds close analogues and randomly drawn compounds. Measured potencies and affinities stand elsewhere.
REPORTED METRIC: activation fold

* Cc1cc(Cl)ccc1OCC(=O)NCCOC(=O)Nc1sc(=S)n(C)c1C | 1.2
* O=S1(=O)NC2CCCCCN2c2ccc(F)cc21 (stereo unspecified) | 1.1
* COc1ccc(-n2cc(CNCCc3cscn3)c(-c3ccccc3Cl)n2)cc1 | 1.1
* COC(=O)c1sccc1NC(=O)Cn1nnc(-c2ccc(C)cc2)n1 | 1
* Cc1cc([N+](=O)[O-])nn1CC(=O)Nc1cc(F)ccc1F | 1
* COc1ccc(S(=O)(=O)Nc2ccccc2C)cc1 | 1
* COC(=O)c1ccc2nc(Nc3nc4ccc(F)cc4s3)sc2c1 | 1.2
* CC1CCN(Cc2nc(Cl)c3c4c(sc3n2)CCC4)CC1 | 1
* COc1ccccc1CNC(=O)Cc1ccc(Br)cc1 | 1.2
* COc1ccc(-n2cc(CNCCc3nc(C)cc(C)n3)c(-c3ccccc3Cl)n2)cc1 | 1
* COc1cccc(/C=N/NC(=O)c2[nH]c(C)c(C(=O)N/N=C/c3cccc(OC)c3)c2C)c1 | 1.2

###

Biological target: Alkaline phosphatase, tissue-nonspecific isozyme (Homo sapiens)
Assay: human TNAP enzyme activators, primary screen, biochemical, luminescent, no phosphate acceptor, uHTS (AID 1001)
Details: purified TNAP, luminescent activation assay, at 20 µM, stronger effect = higher value
Screen size: about 200,000 compounds; about 50 (0.03%) were called active. What follows is part of a selection rich in actives, with near analogues and random picks from the rest. Results with a measured potency or affinity are listed apart.
REPORTED METRIC: activation fold

- Cc1cc(N2CCCCC2)nc(NCc2ccccc2)n1: 1 (inactive)
- Cc1cc2oc(=O)cc(CN3CCN(Cc4ccccc4)CC3)c2cc1Cl: 1 (inactive)
- Cc1sc(NC(=O)CSc2nnc(COc3ccc(Cl)cc3)n2C)c(C#N)c1C: 1.1 (inactive)
- Cn1c(N/N=C2\CCCc3ccccc32)nc2c1c(=O)n(Cc1ccccc1)c(=O)n2C: 2.9 (inactive)
- CCS(=O)(=O)N1CCC(NC(=O)c2ccco2)CC1: 1.1 (inactive)
- Cc1cc(N2CCCCC2)nc(N)n1: 1.1 (inactive)

Ref: PubChem BioAssay AID1001
